- Target of assay: Gonadotropin-releasing hormone receptor (Homo sapiens) (UniProt P30968)
- Sequence (P30968 whole entry, looked up): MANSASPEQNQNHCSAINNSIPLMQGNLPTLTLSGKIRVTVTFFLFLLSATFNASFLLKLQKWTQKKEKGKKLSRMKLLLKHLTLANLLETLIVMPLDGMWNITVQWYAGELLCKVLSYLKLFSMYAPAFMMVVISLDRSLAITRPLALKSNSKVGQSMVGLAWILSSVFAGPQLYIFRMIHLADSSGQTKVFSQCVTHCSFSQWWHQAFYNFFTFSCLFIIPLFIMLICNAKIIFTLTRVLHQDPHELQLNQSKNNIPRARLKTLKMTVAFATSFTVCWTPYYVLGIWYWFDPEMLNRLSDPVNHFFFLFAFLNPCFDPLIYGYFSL
- Test summary: Human gonadotropin-releasing hormone receptor (GnRHR) small molecule agonists, calcium flux assay in GnRHR-HEK293 cells (AID 1920063); note: nearly all actives have a fitted effect of over 35% in size
- Settings: calcium flux fluorescence, agonist mode; series mostly up to 57.6 µM
- From the text: National Center for Advancing Translational Sciences [NCATS] Division of Preclinical Innovation [DPI] U.S. Environmental Protection Agency [EPA] National Institutes of Environmental Health Sciences [NIEHS] National Toxicology Program [NTP] U.S. Food and Drug Administration [FDA] […] GnRHR-HEK293 cells developed by Codex Corp contain human GnRHR reporter gene, which was stably integrated into HEK 293 cells. The compound activation can be detected by fluorescence intensity via calcium flux assay. […]
Activity calls are given as the source filed them. Calls come from the whole dose curve.
API: response.call in YES (active), NO (inactive)

Consider the following illustrative entries.
Molecule | Class assignment
O=C(O)CCCCCCNC1c2ccccc2CCc2ccccc21 | NO
Nc1nc(N)nc(N)n1 | NO
CC(C)N(C(=O)SC/C(Cl)=C/Cl)C(C)C | NO
CC(Cc1ccc(O)cc1)NCC(O)c1cc(O)cc(O)c1 (stereo not drawn) | YES
CCOP(=O)(N=C1SCCS1)OCC | NO

Request: Give the logged outcome of this assay for the following molecule: CCSC(=O)N(CC)C1CCCCC1
Response: NO

Request: Could you kindly confirm the outcome this assay logged for Nc1cc2c3c(c1)C(c1ccccc1)=N[C@@H](NC(=O)c1cccnc1)C(=O)N3CC2 ?
Response: NO

Request: Which outcome did this test record for the molecule CC1CCCCC1NC(=O)Nc1ccccc1 (stereo not drawn) ?
Response: NO

Request: // outcome(item) with item = Cc1cc(C)nc(Nc2ccccc2)n1
Response: NO

Request: Could you check what this test reported for NC1=NC(=O)C(c2ccccc2)O1 (stereo not drawn) ?
Response: NO

Request: I'd appreciate the recorded outcome for CC(Cl)C(C)Cl (stereo not drawn) from this test.
Response: NO

Request: Please share the test call associated with O=C1NCN(c2ccccc2)C12CCN(CC1COc3ccccc3O1)CC2 (stereo not drawn) .
Response: NO

Request: Status in this test for Clc1cc(Cl)c(-c2cc(Cl)c(Cl)cc2Cl)cc1Cl ?
Response: NO

* * *

- Target of assay: 5-hydroxytryptamine receptor 2A (Homo sapiens)
- Test summary: 5-hydroxytryptamine receptor 2A (HTR2A) small molecule agonists, cell-based qHTS assay (AID 1963587); note: nearly all actives have a fitted effect of over 30% in size
- Settings: HTR2A-CHO cells, calcium flux fluorescence, agonist mode; series mostly up to 76.8 µM
Results filed as inconclusive are left out. The source made the active and inactive calls. The call rests on the fitted dose curve.
Pick one and only one: yes (1) (active), no (0) (inactive)

Molecule | Target of assay | Class assignment
CCN(CC)CCOC(=O)C(O)(c1ccccc1)c1ccccc1 | 5-hydroxytryptamine receptor 2A (Homo sapiens) | yes (1)
CCOC(=O)C(Cl)Cc1cc(-n2nc(C)n(C(F)F)c2=O)c(F)cc1Cl (stereo not drawn) | 5-hydroxytryptamine receptor 2A (Homo sapiens) | no (0)
CC1Sc2c(C(=O)O)c(=O)c3cc(F)c(N4CCNCC4)cc3n21 (stereo not drawn) | 5-hydroxytryptamine receptor 2A (Homo sapiens) | no (0)
CCN[C@@H](C)Cc1ccccc1 | 5-hydroxytryptamine receptor 2A (Homo sapiens) | no (0)
CNNC | 5-hydroxytryptamine receptor 2A (Homo sapiens) | no (0)

Request: How was C=CCc1ccc(OC(=O)Cc2ccccc2)c(OC)c1 classified in this test?
Response: no (0)
